What %Inh was measured for each of the following?
System: RPS6KA4(Kin.Dom.2-C-terminal);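 further: KINOMEscan kinase panel screen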
experimental-parameters: concentration: 1 μM, replicates: in singlicate; n = 1
Numeric only. Scale: %

Incoming: Return %Inh (reported value) for this compound: `Nc1n[nH]c2nnc(-c3ccccc3)cc12`
Outgoing: 38

Incoming: Look up and state reported %Inh for `Oc1ccc2ncnc(Nc3ccc(OCc4ccccc4)cc3)c2c1`
Outgoing: 0

Incoming: Indicate the recorded %Inh value for this compound: `Cl.Fc1ccccc1COc1ccc(Nc2ncnc3ccc(-c4nnc(C(F)(F)F)o4)cc23)cc1Cl`
Outgoing: 0

Incoming: State its %Inh for this compound: `O=C(Nc1ccccc1)Nc1ccc(Oc2ccc3nccn3n2)cc1`
Outgoing: 0

Incoming: Complete the entry with %Inh for `O=c1cc(N2CCOCC2)nc2n(Cc3cccc(Cl)c3)ccn12`
Outgoing: 0

Incoming: Determine its reported %Inh: COc1ccc(Nc2nccc(N3CCC(NC(=O)c4cccc(NC(C)=O)c4)C3)n2)cc1 (stereo not drawn)
Outgoing: 0

Incoming: Using the record for CC(C)(C)OC(=O)NC1CCCN(c2cc(-c3ccc4c(N)n[nH]c4c3)nc(N)n2)C1 (stereo not drawn) , state its measured %Inh.
Outgoing: 0

Incoming: Provide %Inh value for the following compound: `CCC(CC)(CC)n1cnc2c(N)ncnc21`
Outgoing: 13

Incoming: Entry `Cl.c1ccc(Cn2ccc3cc(Nc4ncnc5ccccc45)ccc32)cc1` needs its %Inh filled in; supply it.
Outgoing: 0
